All figures here come from patent US20240382465A1.

What IC50 was measured for each of the following?
Test system: recombinant Pseudomonas aeruginosa LpxC (Pseudomonas aeruginosa (strain ATCC 15692 / DSM 22644 / CIP 104116 / JCM 14847 / LMG 12228 / 1C / PRS 101 / PAO1))
Protocol text: Inhibition of LpxC enzymatic activity (fluorescamine assay)
Type: biochemical
Condition notes: recombinant P. aeruginosa LpxC 5 nM, substrate 10 μM, 25° C., 120 minutes; read-out: IC50
One number for each entry, in nM.

Respectfully, I request IC50 for each entry included below.
1. C[C@H](O)c1nccn1Cc1cc(-c2ccc(C#Cc3cccc(C(N)=O)c3)cc2)on1
2. C[C@H](O)c1nccn1Cc1cc(-c2ccc(C#Cc3ccc(CN4CCC(O)C(F)(F)C4)cc3)cc2)on1 (stereo partly shown)
3. C[C@H](O)c1nccn1Cc1cc(-c2ccc(C#Cc3ccc(OCC4CCN(C)CC4)cc3)cc2)on1
4. C[C@H](O)c1nccn1Cc1cc(-c2ccc(C#Cc3ccc(C(C)(C)N4CCOCC4)cc3)cc2)on1
5. C[C@H](O)c1nccn1Cc1cc(-c2ccc(C#Cc3ccc(CCC(=O)O)nc3)cc2)on1
6. C[C@H](O)c1nccn1Cc1cc(-c2ccc(C#Cc3ccc(CN4CCOCC4)cc3)cc2)on1
7. CNC(=O)c1ccc(C#Cc2ccc(-c3cc(Cn4ccnc4[C@H](C)O)no3)cc2)cc1
8. C[C@H](O)c1nccn1Cc1cc(-c2ccc(C#Cc3ccc(CN4CCC(O)CC4)nc3)cc2)on1

Ans.
1: 65.1; 2: 31.9; 3: 12.9; 4: 76.5; 5: 22; 6: 3.07; 7: 36.7; 8: 8.33

* * *

Test system: recombinant Pseudomonas aeruginosa LpxC (Pseudomonas aeruginosa (strain ATCC 15692 / DSM 22644 / CIP 104116 / JCM 14847 / LMG 12228 / 1C / PRS 101 / PAO1))
Protocol text: Inhibition of LpxC enzymatic activity (fluorescamine assay)
Format: biochemical
Condition notes: recombinant P. aeruginosa LpxC 5 nM, substrate 10 μM, 25° C., 120 minutes; read-out: IC50
Measured endpoint: pIC50
Answers are plain numbers, as −log10 of the molar value.

Worked cases, answers included:
{"Smiles string": "C[C@H](O)c1nccn1Cc1cc(-c2ccc(C#Cc3ccc(CNCCC(=O)O)cc3)cc2)on1", "pIC50": 7.61}
{"Smiles string": "C[C@H](O)c1nccn1Cc1cc(-c2ccc(C#Cc3ccc(CN4CC(C#N)C4)cc3)cc2)on1", "pIC50": 7.95}
{"Smiles string": "C[C@H](O)c1nccn1Cc1cc(-c2ccc(C#Cc3ccc(OCCCN4CCOCC4)cc3)cc2)on1", "pIC50": 7.21}

Record pIC50 for all entries; do not skip any.
1. C[C@H](O)c1nccn1Cc1cc(-c2ccc(C#Cc3ccc(CN4CC(C(N)=O)C4)cc3)cc2)on1
2. C[C@H](O)c1nccn1Cc1cc(-c2ccc(C#Cc3ccc(CN4CCN(C)CC4)cc3)cc2)on1
3. C[C@H](O)c1nccn1Cc1cc(-c2ccc(C#Cc3ccc(CNCC(=O)O)nc3)cc2)on1
4. C[C@H](O)c1nccn1Cc1cc(-c2ccc(C#Cc3ccc(Cn4cccn4)cc3)cc2)on1
5. C[C@H](O)c1nccn1Cc1cc(-c2ccc(C#Cc3ccc(C(=O)NCC(C)(C)O)cc3)cc2)on1
6. C[C@H](O)c1nccn1Cc1cc(-c2ccc(C#Cc3ccc(CCC(N)=O)nc3)cc2)on1
7. C[C@H](O)c1nccn1Cc1cc(-c2ccc(C#Cc3ccc(CN4CC(C(N)=O)C4)nc3)cc2)on1

Ans.
7.86
8.01
7.32
7.55
7.58
7.78
8.09

Parameter requested: pIC50. Apply to each item below.
1. C[C@H](O)c1nccn1Cc1cc(-c2ccc(C#Cc3ccc(CN4CCOCC4)cc3)cn2)no1
2. C[C@H](O)c1nccn1Cc1cc(-c2ccc(C#Cc3ccc(CCC(=O)O)cc3)cc2)on1
3. C[C@H](O)c1nccn1Cc1cc(-c2ccc(C#Cc3ccc(C(=O)NCCO)nc3)cc2)on1
4. CC(=O)c1ccc(C#Cc2ccc(-c3cc(Cn4ccnc4[C@H](C)O)no3)cc2)cc1
5. C[C@H](O)c1nccn1Cc1cc(-c2ccc(C#Cc3ccc(CN4CC(C#N)C4)nc3)cc2)on1
6. C[C@H](O)c1nccn1Cc1cc(-c2ccc(C#Cc3ccc(C(=O)N4CC(O)C4)cc3)cc2)on1

Ans.
1. 7.23
2. 8.37
3. 7.64
4. 7.14
5. 8.13
6. 7.17

* * *

Exercise: state measured IC50 for each of the compounds provided.
Test system: recombinant Pseudomonas aeruginosa LpxC (Pseudomonas aeruginosa (strain ATCC 15692 / DSM 22644 / CIP 104116 / JCM 14847 / LMG 12228 / 1C / PRS 101 / PAO1))
Protocol text: Inhibition of LpxC enzymatic activity (fluorescamine assay)
Format: biochemical
Condition notes: recombinant P. aeruginosa LpxC 5 nM, substrate 10 μM, 25° C., 120 minutes; read-out: IC50
Answers are plain numbers, in nM.

Example entries and their recorded answers appear below.
{"Smiles string": "C[C@H](O)c1nccn1Cc1coc(-c2ccc(C#Cc3ccc(CN4CCC(O)CC4)cc3)cc2)n1", "IC50 [nM]": 98.9}
{"Smiles string": "C[C@H](O)c1nccn1Cc1cc(-c2ccc(C#Cc3cccc(C(=O)O)c3)cc2)on1", "IC50 [nM]": 16.3}
{"Smiles string": "C[C@H](O)c1nccn1Cc1cc(-c2ccc(C#Cc3cccc(OCC(=O)O)c3)cc2)on1", "IC50 [nM]": 11.2}
{"Smiles string": "C[C@H](O)c1nccn1Cc1cc(-c2ccc(C#Cc3ccc(CNCCN)cc3)cc2)on1", "IC50 [nM]": 14.1}
{"Smiles string": "C[C@H](O)c1nccn1Cc1cc(-c2ccc(C#Cc3ccc(Cn4ccnc4)cc3)cc2)on1", "IC50 [nM]": 78.5}
{"Smiles string": "C[C@H](O)c1nccn1Cc1cc(-c2ccc(C#Cc3ccc(CN4CC(CC#N)C4)nc3)cc2)on1", "IC50 [nM]": 16.5}

Can you give me IC50 for all of these, one by one?
1. C[C@H](O)c1nccn1Cc1cc(-c2ccc(C#Cc3ccc(CNCCO)nc3)cc2)on1
2. C[C@H](O)c1nccn1Cc1cc(-c2ccc(C#Cc3ccc(CC(=O)O)nc3)cc2)on1

Ans.
[26.4, 19.9]

* * *

For each record, write down the corresponding IC50.
Test system: recombinant Pseudomonas aeruginosa LpxC (Pseudomonas aeruginosa (strain ATCC 15692 / DSM 22644 / CIP 104116 / JCM 14847 / LMG 12228 / 1C / PRS 101 / PAO1), UniProt P47205)
Protocol text: Inhibition of LpxC enzymatic activity (fluorescamine assay)
Format: biochemical
Condition notes: recombinant P. aeruginosa LpxC 5 nM, substrate 10 μM, 25° C., 120 minutes; read-out: IC50
Answers are plain numbers, in nM.

Consider the worked cases shown below.
{"Compound": "C[C@H](O)c1nccn1Cc1cc(-c2ccc(C#Cc3cccc(OCC(N)=O)c3)cc2)on1", "IC50 / nM": 21.6}
{"Compound": "C[C@H](O)c1nccn1Cc1cc(-c2ccc(C#Cc3ccc(CN4CC(C(=O)O)C4)cc3)cc2)on1", "IC50 / nM": 19.9}

// input: 2 compounds below; output: IC50 for each
1. C[C@H](O)c1nccn1Cc1cc(-c2ccc(C#Cc3ccc(CN4CCOCC4C(=O)O)cc3)cc2)on1 (stereo partly shown)
2. CC(=O)c1ccc(C#Cc2ccc(-c3cc(Cn4ccnc4[C@H](C)O)no3)cc2)cn1

Ans.
1. 9.86
2. 46.8

* * *

Test system: recombinant Pseudomonas aeruginosa LpxC (Pseudomonas aeruginosa (strain ATCC 15692 / DSM 22644 / CIP 104116 / JCM 14847 / LMG 12228 / 1C / PRS 101 / PAO1))
Protocol text: Inhibition of LpxC enzymatic activity (fluorescamine assay)
Assay type: biochemical
Measured endpoint: pIC50
Numbers only, as −log10 of the molar value.

{"Molecule": "C[C@H](O)c1nccn1Cc1cc(-c2ccc(C#Cc3ccc(CN4CCOC(C(=O)O)C4)cc3)cc2)on1 (stereo partly shown)", "pIC50": 7.95}
{"Molecule": "C[C@H](O)c1nccn1Cc1cc(-c2ccc(C#Cc3ccc(CNCCS(C)(=O)=O)cc3)cc2)on1", "pIC50": 7.96}
{"Molecule": "C[C@H](O)c1nccn1Cc1cc(-c2ccc(C#Cc3ccc(CNCC(N)=O)cc3)cc2)on1", "pIC50": 7.83}

// next entry
Qu. Could you tell me which pIC50 is on file for C[C@H](O)c1nccn1Cc1cc(-c2ccc(C#Cc3ccc(CNC4CCS(=O)(=O)C4)cc3)cc2)on1 (stereo partly shown) ?
Ans. 8.22

* * *

Test system: recombinant Pseudomonas aeruginosa LpxC (Pseudomonas aeruginosa (strain ATCC 15692 / DSM 22644 / CIP 104116 / JCM 14847 / LMG 12228 / 1C / PRS 101 / PAO1))
Protocol text: Inhibition of LpxC enzymatic activity (fluorescamine assay)
Assay type: biochemical
Condition notes: recombinant P. aeruginosa LpxC 5 nM, substrate 10 μM, 25° C., 120 minutes; read-out: IC50
Could you please mark rule met for values of IC50 below 20 nM and rule not met for values at or above it?

{"Smiles string": "C[C@H](O)c1nccn1Cc1cc(-c2ccc(C#Cc3cccc(OCC#N)c3)cc2)on1", "Group label": "rule not met"}

Qu. Here's an entry: C[C@H](O)c1nccn1Cc1cc(-c2ccc(C#Cc3ccc(OCCN4CCOCC4)cc3)cc2)on1 . Is its IC50 below 20 nM?
Ans. rule not met

Qu. Input C[C@H](O)c1nccn1Cc1cc(-c2ccc(C#Cc3ccc(CN4CCNC(=O)C4)nc3)cc2)on1 ; condition: IC50 strictly below 20 nM. Does it hold?
Ans. rule met

Qu. Given the entry C[C@H](O)c1nccn1Cc1cc(-c2ccc(C#Cc3ccc(CN4CCS(=O)(=O)CC4)cc3)cc2)on1 , would its reported IC50 be below 20 nM?
Ans. rule not met

Qu. Please indicate whether the reported IC50 of C[C@H](O)c1nccn1Cc1cc(-c2ccc(C#Cc3ccc(C(=O)NCC(=O)O)cc3)cc2)on1 is strictly below 20 nM.
Ans. rule not met
